# Method: Oral bioavailability in wild type FVB mouse
# Format: ADME, organism-based
# Details: in vivo

{"Compound": "O=S(=O)(c1ccc(Cl)cc1)N1C2CCCC1c1cn[nH]c1C2 (single isomer, unassigned)", "bioavailability": "2%"}
